- assayed-system: CYP3A4 (Homo sapiens (Human))
- Sequence (P08684 whole entry): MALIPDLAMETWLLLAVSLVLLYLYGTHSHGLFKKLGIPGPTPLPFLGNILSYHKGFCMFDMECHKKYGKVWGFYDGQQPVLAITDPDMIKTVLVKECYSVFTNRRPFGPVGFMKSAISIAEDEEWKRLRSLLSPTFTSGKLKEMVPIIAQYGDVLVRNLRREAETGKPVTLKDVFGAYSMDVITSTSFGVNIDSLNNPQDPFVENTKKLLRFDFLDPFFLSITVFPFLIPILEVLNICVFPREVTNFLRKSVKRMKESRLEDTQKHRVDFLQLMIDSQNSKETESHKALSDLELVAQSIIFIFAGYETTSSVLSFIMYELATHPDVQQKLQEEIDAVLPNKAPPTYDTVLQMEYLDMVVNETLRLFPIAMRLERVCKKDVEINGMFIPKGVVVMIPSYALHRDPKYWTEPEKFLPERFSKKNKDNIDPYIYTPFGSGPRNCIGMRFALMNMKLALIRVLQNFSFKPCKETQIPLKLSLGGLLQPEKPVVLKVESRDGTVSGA
- assay-name: Mechanism-based inhibition of CYP3A4 assay (MBI 3A4)
- Format: in vitro ADME
- test-settings: human, human liver microsomes, probe midazolam 15 μM (hydroxy-midazolam formation), midazolam substrate, hydroxy-midazolam formation after 30 min preincubation relative to 0 min, read-out: MBI inhibition % ctrl. [%] with MDZ
reported-endpoint: inhibition at 30 min (%)
Number in %, nothing else.

{"columns": ["structure-as-smiles", "measure-unit", "inhibition at 30 min"],
 "data": [
  ["C[C@@H](NC(=O)c1cc(N2CCC3(CCCN3C)CC2)c2ncnn2c1)c1cccc(C(F)F)c1F", "%", 94]
]}

Lab note: need inhibition at 30 min with CYP3A4 (Homo sapiens (Human)) for entry `C[C@@H](NC(=O)c1cc([C@H]2CC[C@H](N3CCC[C@@H](O)C3)CC2)c2ncnn2c1)c1cccc(C(F)F)c1F` , please look it up.
96

What do you have for `C[C@@H](NC(=O)c1cc(N2CCC(N3CCCC3)CC2)c2ncnn2c1)c1cccc(C(F)(F)F)c1F` ?
92

Also `C[C@@H](NC(=O)c1cc(N2CCC(N3C[C@@H](O)C4(CC4)C3)CC2)c2ncnn2c1)c1cccc(C(F)(F)F)c1F` , if possible.
103
